Attribution: PubChem BioAssay AID463173

System: DeltatarO mutant
Assay: S. aureus survival, RN4220 and DeltatarO strains – OD600, teichoic acid synthesis inhibitors, primary screen (AID 463173)
Settings: S. aureus RN4220 wild type/DeltatarO growth, OD600, 18 h, active compounds read low, screened at 18.75 µg/mL (by protocol)
The campaign covered roughly 52,000 compounds. About 4,300 (8.3%) were called active. What follows is part of a selection rich in actives, with near analogues and random picks from the rest.
QUANTITY_NAME: survival (%)
Give just the numeric value; % need not be written.

{"COMPOUND": "O=C(O)c1ccc(N=NN2CCCCC2)cc1", "survival [%]": 75}
{"COMPOUND": "O=C(Nc1cccc(-c2nc3ccccc3o2)c1)c1cc([N+](=O)[O-])ccc1N1CCOCC1", "survival [%]": 42}
{"COMPOUND": "Cc1ccc2c(c1)cc1c(=O)n(CC(=O)N3CCCCC3)nc(C)n12", "survival [%]": 90}

Short answer for O=c1ccc2cc(S(=O)(=O)Nc3ccc(F)c(Cl)c3)ccc2[nH]1 : survival was 89

Short answer for Cc1c(NC(=O)c2cc([N+](=O)[O-])ccc2N2CCOCC2)cccc1-c1nc2ccccc2o1 : survival was 50
